Molecular target: Tissue alpha-L-fucosidase (Bos taurus)
Test: Inhibition of bovine kidney alpha-fucosidase at 1 mM using […] as substrate incubated for 10 mins by spectrophotometric method
measurement-name: inhibition

Observe how each entry below is paired with its result.
| compound-structure | test-target | inhibition |
| --- | --- | --- |
| Cc1cc2c(c(=O)[nH]1)C(=O)O/C2=C\c1ccc(CO)n1-c1ccc(F)cc1 | Tissue alpha-L-fucosidase (Bos taurus) | < 50% |
| Oc1cc(O)cc(/C=C/c2cc(O)c(O)c(O)c2)c1 | Tissue alpha-L-fucosidase (Bos taurus) | < 50% |

Next:
Request: For `Cc1cc2c(c(=O)[nH]1)C(=O)O/C2=C\c1ccc(CO)n1-c1ccc(Cl)cc1` , what is its reported inhibition?
Response: < 50%
